system: caspase-3; experiment: Caspase-3 activation in cortical neurons from knockout mouse pups; assay type: cell-based; conditions: wild-type cortical neurons
PROPERTY LABEL: blockade of glutamate-provoked caspase-3 activation

>  <COMPOUND>
O=c1cc(-c2ccccc2)oc2c(O)c(O)ccc12 [7,8-dihydroxyflavone]

>  <VALUE>
substantially blocked

$$$$
>  <COMPOUND>
CC(=O)O[C@@H]1C[C@H]2C(C)(C)C(=O)C=C[C@]2(C)[C@H]2CC[C@]3(C)C(=CC(=O)O[C@H]3c3ccoc3)[C@@]21C

>  <VALUE>
substantially blocked

$$$$

---

target: TrkB extra-cellular domain (ECD) (Homo sapiens, UniProt Q16620); test: [3H]-deoxygedunin ligand binding assay, TrkB ECD (Scatchard plot); conditions: Scatchard plot analysis; read-out: binding constant Kd
Sequence (Q16620 32-430 limits assumed): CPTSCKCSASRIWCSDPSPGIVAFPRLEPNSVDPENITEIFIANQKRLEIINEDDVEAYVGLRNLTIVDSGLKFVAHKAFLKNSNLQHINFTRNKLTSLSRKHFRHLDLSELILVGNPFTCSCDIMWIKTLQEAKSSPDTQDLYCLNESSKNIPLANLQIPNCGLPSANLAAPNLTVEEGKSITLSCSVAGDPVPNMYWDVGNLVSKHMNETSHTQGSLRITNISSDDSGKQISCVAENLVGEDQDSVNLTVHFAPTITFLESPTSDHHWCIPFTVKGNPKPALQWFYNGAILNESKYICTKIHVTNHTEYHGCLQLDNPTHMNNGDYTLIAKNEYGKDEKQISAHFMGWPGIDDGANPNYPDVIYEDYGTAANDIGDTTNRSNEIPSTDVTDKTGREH
PROPERTY LABEL: Kd (nM)
Express the result in nM but write the number alone.

What is its Kd for TrkB extra-cellular domain (ECD) (Homo sapiens, UniProt Q16620)? Entry: CC(=O)O[C@@H]1C[C@H]2C(C)(C)C(=O)C=C[C@]2(C)[C@H]2CC[C@]3(C)C(=CC(=O)O[C@H]3c3ccoc3)[C@@]21C 1400
